# credit: PubChem BioAssay (NCI)

Tested on: MDA-MB-231 breast
Assay: NCI tumour cell line growth inhibition, 48 h; in the data active means GI50 below about 0.43 µM; inactive means the rest
Assign a class; possible classes are true = active, false = inactive

>  <SMILES RECORD>
O=C(NCCCCN1CCOCC1)c1cc2ccccc2o1

>  <CLASS NAME>
false

$$$$
>  <SMILES RECORD>
CCCCCCCCCCCCCCCC1=NCC[N+]1(CCO)CCO

>  <CLASS NAME>
false

$$$$
>  <SMILES RECORD>
Fc1ccc(-c2c(-c3ccncc3)nc3n2CCS3)cc1

>  <CLASS NAME>
false

$$$$
>  <SMILES RECORD>
CN[C@H]1CN(c2ccc3c(=O)c(C(=O)O)cn(-c4nccs4)c3n2)C[C@@H]1OC

>  <CLASS NAME>
false

$$$$

Next:
QUERY: Which result was noted for this compound in the test: CC(C)C[C@H](NC(=O)CNC(=O)c1cc(Cl)ccc1Cl)B(O)O
RESULT: true
